The measurements presented in this section are drawn from PubChem BioAssay AID248.

tested on: L1210 leukemia ip in BDF1 mice, survival T/C; experiment: NCI In Vivo Anticancer Drug Screen. Data for tumor model L1210 Leukemia (intraperitoneal) in B6D2F1 (BDF1) mice; details: endpoint: mean survival time; dose: 100.0 mg/kg/injection; schedule: Q04DX003 (ip); vehicle: saline with Tween-80; higher = longer survival
Toxic doses and inconclusive results are not listed.
ENDPOINT NAME: T/C

compound="CC(C)C(C(=O)O)N1C(=O)C2C3C=CC(C3)C2C1=O (configuration not stated)" endpoint_name=T/C result="102 % of control"
compound=O=C(O)/C(=C\c1ccc(Cl)cc1)c1ccc(C(F)(F)F)cc1[N+](=O)[O-] endpoint_name=T/C result="96 % of control"
compound=O=[N+]([O-])/C=C/c1c[nH]c2ccccc12 endpoint_name=T/C result="92 % of control"
compound=O=C(Oc1ccccc1)c1ccccc1Cl endpoint_name=T/C result="100 % of control"
compound=Cc1ccc(S(=O)(=O)OC[C@H]2CC=CC[C@H]2COS(=O)(=O)c2ccc(C)cc2)cc1 endpoint_name=T/C result="88 % of control"
compound=CCCCCCCCCCCCCCCC(=O)N(CCCN)CCCCN(CCCN)C(=O)CCCCCCCCCCCCCCC endpoint_name=T/C result="110 % of control"
compound=O=C(Cn1cc(F)c(=O)[nH]c1=O)c1ccc(Cl)s1 endpoint_name=T/C result="100 % of control"
compound=C/C(=C\Cl)CN(C)C endpoint_name=T/C result="97 % of control"
compound=CCCCN(C)c1ccc(N=Nc2cc(Cl)ccc2Cl)cc1 endpoint_name=T/C result="98 % of control"
compound=CCCCNC(C)(C)CSS(=O)(=O)O endpoint_name=T/C result="96 % of control"
compound=O=C(Nc1cc(NC(=O)Oc2ccccc2)cc([N+](=O)[O-])c1)Oc1ccccc1 endpoint_name=T/C result="96 % of control"
compound=O=C(O)c1scc2c1CCCC2 endpoint_name=T/C result="97 % of control"
compound="CC(NC(=O)Oc1ccccc1)Oc1ccccc1 (configuration not stated)" endpoint_name=T/C result="96 % of control"
compound=CCCCN(CCCC)c1ccc(C(=O)O)cc1 endpoint_name=T/C result="100 % of control"
compound=CC(=O)Oc1ccc2c(=O)c(-c3ccccc3)c(C)oc2c1 endpoint_name=T/C result="100 % of control"
compound=CCNC(=O)OCCc1c2ccccc2[n+]([O-])c2ccccc12 endpoint_name=T/C result="96 % of control"
compound=O=C1c2cccc(Sc3ccccc3)c2C(=O)c2c(Sc3ccccc3)cccc21 endpoint_name=T/C result="91 % of control"
